- assay-remarks: Rivaroxaban plasma pharmacokinetics after oral administration in rats (model independent analysis)
- Format: in vivo, Sprague Dawley rats
- conditions: male, Sprague Dawley, rat, plasma, po, 2 mg/kg
measured-property: Cmax (ng/mL)

smiles-data	endpoint-value
O=C(NC[C@H]1CN(c2ccc(N3CCOCC3=O)cc2)C(=O)O1)c1ccc(Cl)s1	373

---

- assay-remarks: in vivo
- conditions: male, Sprague Dawley, rat, plasma, oral, 2 mg/kg

smiles-data	Vd/F, L/kg
O=C(NC[C@H]1CN(c2ccc(N3CCOCC3=O)cc2)C(=O)O1)c1ccc(Cl)s1	0.96

---

- assay-remarks: Rivaroxaban plasma pharmacokinetics after oral administration in rats (model independent analysis)
- Type: in vivo, Sprague Dawley rats
- conditions: rivaroxaban in plasma; rivaroxaban 2 mg/kg oral, alone or with verapamil 25 mg/kg or diltiazem 30 mg/kg; mean (RSD %), n = 5
- Source text: The animals used in this study were 15 Sprague Dawley rats (8-week-old males, 280–300 g). […] The study protocol was approved by the Institutional Animal Care and Use Committees (IACUC) at Chung-Ang University. All animals used in this study were cared for in accordance with the principles outlined in the National Institutes of Health Guide for the Care and Use of Laboratory Animals. All drugs were suspended in corn oil and administered orally. […]
measured-property: AUCinf (ng·h/mL)

smiles-data	endpoint-value
O=C(NC[C@H]1CN(c2ccc(N3CCOCC3=O)cc2)C(=O)O1)c1ccc(Cl)s1	2700

---

- assay-remarks: Rivaroxaban plasma pharmacokinetics after oral administration in rats (model independent analysis)
- Format: in vivo, Sprague Dawley rats
- conditions: male, Sprague Dawley, rat, plasma, po, 2 mg/kg
measured-property: CL/F (mL/min/kg)

smiles-data	measured-property	endpoint-value
O=C(NC[C@H]1CN(c2ccc(N3CCOCC3=O)cc2)C(=O)O1)c1ccc(Cl)s1	CL/F	12.9

---

- assay-remarks: Rivaroxaban plasma pharmacokinetics after oral administration in rats (model independent analysis)
- Type: in vivo, Sprague Dawley rats
- conditions: male, Sprague Dawley, rat, plasma, po, 2 mg/kg

smiles-data	AUC(0-inf) (ng·h/mL)
O=C(NC[C@H]1CN(c2ccc(N3CCOCC3=O)cc2)C(=O)O1)c1ccc(Cl)s1	2700
